Values from patent US6541463B1

System: progesterone receptor
Assay: Progesterone receptor assay: inhibition of [3H]R5020 binding, uterine cytosol
Parameters: species or system rat
Conditions: Table 4′; E^−6
RESULT_TYPE: % Inhibition Progesterone Receptor E^−6 (%)
The figure you give is taken to be in %; do not add the unit.

>>> df
                                   compound  result_unit  measured_result
0  CC1(C)CCC2(CCC3C4CCc5ccccc5C4CCC32C)OC1=O (stereo not shown)            %                5

Input: Requested field: % Inhibition Progesterone Receptor E^−6. Item: CC1(C)CCC2(CCC3C4CCc5c(cc(Cl)c(O)c5Cl)C4CCC32C)OC1=O (stereo not shown)
Output: 1

Input: Given the compound CC1(C)CC[C@@]2(CCC3C4CCc5cc(C(N)=O)ccc5C4CCC32C)OC1=O (stereo partly shown) , what is its reported % Inhibition Progesterone Receptor E^−6?
Output: 0

Input: What value of % Inhibition Progesterone Receptor E^−6 has been reported for the following compound? COCCOc1cc2c(cc1C(N)=O)C1CC[C@@]3(C)C(CC[C@@]34CCC(C)(C)C(=O)O4)C1CC2 (stereo partly shown)
Output: 0
